experimental.system: T1, dog activated Protein C (dog, UniProt Q28278 43-456)
T1 construct: mature; also called dog aPC; dAPC
T1 sequence (looked up): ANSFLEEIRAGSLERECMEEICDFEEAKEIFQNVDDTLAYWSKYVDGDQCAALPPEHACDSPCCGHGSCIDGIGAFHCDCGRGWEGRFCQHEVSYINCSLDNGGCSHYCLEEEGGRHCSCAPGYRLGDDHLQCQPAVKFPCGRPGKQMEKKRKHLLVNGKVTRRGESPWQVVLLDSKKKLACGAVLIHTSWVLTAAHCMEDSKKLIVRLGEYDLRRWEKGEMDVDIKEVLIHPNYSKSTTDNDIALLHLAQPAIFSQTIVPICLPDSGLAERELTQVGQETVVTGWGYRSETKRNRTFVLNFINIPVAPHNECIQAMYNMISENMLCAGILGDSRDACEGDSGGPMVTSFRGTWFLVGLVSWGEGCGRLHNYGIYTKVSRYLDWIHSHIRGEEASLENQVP
test.summary: ELISA, hIgG1
parameter: pEC50
In plain terms, pEC50 is the concentration in mol/L turned into minus its base-10 logarithm.

For the binder C7I7 hIgG1 (antibody, V domains shown, also called C717-IgG) VH: EVQLLESGGGLVQPGGSLRLSCAASGFTFGNHWMTWVRQAPGKGLEWVSGVSWNGSRTHYADSVKGRFTISRDNSKNTLYLQMNSLRAEDTAVYYCALTGRSGWMRFPNWFDPWGQGTLVTVTS VL: QSVLTQPPSASGTPGQRVTISCTGSSSNIGAGYDVHWYQQLPGTAPKLLIYGNSNRPSGVPDRFSGSKSGTSASLAISGLRSEDEAAYYCSSYVGSDLVVFGGGTKLTVLG , what pEC50 is on record? 8.64

I'd like to know its pEC50. The binder in question is C25K23 IgG1 (antibody, V domains shown, the claims call them variable regions; also called C25K23 hIgG; C25K23 hIgG1) VH: EVQLLESGGGLVQPGGSLRLSCAASGFTFSSYWMSWVRQAPGKGLEWVSGVSWNGSRTHYADSVKGRFTISRDNSKNTLYLQMNSLRAEDTAVYYCALTGRSGWMRFPNWFDPWGQGTLVTVSS VL: QSVLTQPPSASGTPGQRVTISCTGSSSNIGAAYDVHWYQQLPGTAPKLLIYGNNKRPSGVPDRFSGSKSGTSASLAISGLRSEDEADYYCQSYDSSLSGSVFGGGTKLTVLG 8.47

Item under review: C7A23 hIgG1 (antibody, V domains shown, also called C7A23-IgG) VH: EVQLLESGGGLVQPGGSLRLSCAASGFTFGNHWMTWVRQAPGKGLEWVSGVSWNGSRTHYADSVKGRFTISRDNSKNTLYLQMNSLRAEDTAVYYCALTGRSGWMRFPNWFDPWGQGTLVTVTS VL: QSVLTQPPSASGTPGQRVTISCSGSSSNIGNNYVSWYQQLPGTAPKLLIYRNNQRPSGVPDRFSGSKSGTSASLAISGLRSEDEADYYCQSYDSDLSGPYVLFGGGTKLTVLG . Reported pEC50? 7.96

Look up pEC50: T46J23-hIgG1 (antibody, V domains shown, also called T46J23-IgG) VH: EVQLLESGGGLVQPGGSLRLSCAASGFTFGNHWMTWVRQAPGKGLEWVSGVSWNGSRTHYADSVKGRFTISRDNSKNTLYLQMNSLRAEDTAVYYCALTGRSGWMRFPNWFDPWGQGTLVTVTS VL: LTQPPSASGTPGQRVTISCTGTSSNIGAGYDVHWYQQLPGTAPKLLIYDNNNRPSGVPDRFSGSKSGTSASLAISGLRSEDEADYYCAAWDDSLNGVVFGGGTKLTVLG 8.77

FYI, the data here is from patent US20150307625A1.
